assay.notes: LC/MS of serum sample: time from centrifugation to isolation (Table K)
Type: physicochemical, human
Design: key: detection intensity relative to the 30-minute value set as 1
reported.conditions: after 6 hours from centrifugation to isolation; detection intensity relative to 1 at 30 minutes
property.label: Rate of increase or decrease

N[C@@H](CS)C(=O)O = 0.61
O=c1[nH]cnc2nc[nH]c12 = 2.78
C[S+]([O-])CC[C@H](N)C(=O)O (stereo partly shown) [Methionine sulfoxide] = 1.77
O=c1[nH]c(=O)c2[nH]cnc2[nH]1 = 2.50
O=C(O)[C@@H]1CCCN1 = 2.35

I = N[C@@H](CC(=O)O)C(=O)O
II = NC(=O)NC1NC(=O)NC1=O (stereo not shown)
Prompt: Could you determine which record has the numerically smaller Rate of increase or decrease? Candidates: I and II Identify your selection by its label.
Completion: I

---

assay.notes: LC/MS of serum sample: number of times of freezing and thawing (Table M)
Type: physicochemical, human
reported.conditions: serum sample, LC/MS; detection intensity changed by 30% or more vs 2 times of freezing and thawing
property.label: Number of times when compound is affected (times)

NC(=O)c1cccnc1 [Nicotinamide] = 6
Nc1nc2c(ncn2[C@@H]2O[C@H](CO)[C@@H](O)[C@H]2O)c(=O)[nH]1 = 6
CN=C(NC)NCCC[C@H](N)C(=O)O = 6
N[C@@H](Cc1ccc(O)c(O)c1)C(=O)O = 6
N[C@@H](CCC(=O)O)C(=O)O = 10

---

assay.notes: LC/MS of serum sample: number of times of freezing and thawing (Table M)
Assay type: physicochemical, human
Parameters: key: detection intensity relative to 1 at 2 freeze-thaw cycles
reported.conditions: 6 times of freezing and thawing; relative to 1 at 2 times; different from individual to individual, second value (decrease)
property.label: Rate of increase or decrease

These solved cases illustrate the format of a correct answer.
C[C@@H](O)[C@H](N)C(=O)O = 0.69
N=C(N)NCCC[C@H](NC(CC(=O)O)C(=O)O)C(=O)O (some centres unmarked) = 0.49
C[C@H](N)C(=O)O = 0.63
CCC(N)C(=O)O (centres unmarked) = 0.61
CN(C)CC(=O)O = 0.61
CC[C@H](C)[C@H](N)C(=O)O = 0.66

A = Nc1ncnc2c1ncn2[C@@H]1O[C@H](CSCC[C@H](N)C(=O)O)[C@@H](O)[C@H]1O
B = N[C@@H](Cc1ccc(O)c(O)c1)C(=O)O
Prompt: Could you determine which record has the numerically smaller Rate of increase or decrease? Candidates: A and B Identify your selection by its label.
Completion: B
(B: 0.31, A: 0.49)

---

assay.notes: GC/MS of serum sample: time from centrifugation to isolation (Table H)
Type: physicochemical, human
Set-up: key: detection intensity relative to 1 at 30 min centrifugation-to-isolation
reported.conditions: detection intensity relative to 1 at 30 minutes, after 6 hours
Method: After standing, the blood sample was subjected to centrifugation under a condition of room temperature, 3500 rpm, and 5 minutes. […] After centrifugation, the blood-collecting vessel was left to stand at room temperature, and the serum was isolated during this time. […]
property.label: Rate of increase or decrease

These solved cases illustrate the format of a correct answer.
N[C@H]1C(O)O[C@H](CO)[C@@H](O)[C@@H]1O (stereo partly shown) = 1.69
O=c1cc[nH]c(=O)[nH]1 = 4.84
OC[C@H]1O[C@@H](O[C@H]2[C@H](O)[C@@H](O)C(O)O[C@@H]2CO)[C@H](O)[C@@H](O)[C@H]1O (stereo partly shown) = 1.43
O=C(O)C(=O)Cc1ccccc1 = 1.45
O=C(O)CCc1c[nH]c2ccccc12 = 1.54

1 = CC(=O)CC(=O)O
2 = CCCCCCCCCCCCCCCCCC(=O)OCC(O)CO (stereo not shown)
Prompt: Which shows the larger Rate of increase or decrease value: 1 or 2 ? Identify your selection by its label.
Completion: 2

---

assay.notes: LC/MS of blood plasma sample: time from blood collection to centrifugation (Table D)
Assay type: physicochemical, human
reported.conditions: different from individual to individual, individuals with decrease, relative to 1 at 15 minutes, collection to centrifugation, after 12 hours
property.label: Rate of increase or decrease (second value, decrease)

CN=C(NC)NCCC[C@H](N)C(=O)O [Symmetric dimethylarginine] = 0.68
CN(C)C(N)=NCCC[C@H](N)C(=O)O [Asymmetric dimethylarginine] = 0.66
Nc1ccccc1C(=O)CC(N)C(=O)O (stereo not shown) [Kynurenine] = 0.66
C[N+](C)(C)CC(O)CC(=O)[O-] (stereo not shown) [Carnitine] = 0.64
CN(C)CC(=O)O [Dimethylglycine] = 0.63
CCC(N)C(=O)O (stereo not shown) [2-Aminobutyric acid] = 0.65
N[C@@H](Cc1c[nH]c2ccccc12)C(=O)O [Tryptophan] = 0.66

---

assay.notes: LC/MS of serum sample: time from centrifugation to isolation (Table K)
Type: physicochemical, human
Parameters: key: detection intensity relative to the 30-minute value set as 1
reported.conditions: after 1 hour from centrifugation to isolation; detection intensity relative to 1 at 30 minutes
property.label: Rate of increase or decrease

These solved cases illustrate the format of a correct answer.
OC[C@H]1O[C@@H](n2cnc3c(O)ncnc32)[C@H](O)[C@@H]1O [Inosine] = 0.61
Nc1ncnc2c1ncn2[C@@H]1O[C@H](CSCC[C@H](N)C(=O)O)[C@@H](O)[C@H]1O [S-adenosylhomocysteine] = 1.51
Nc1ncnc2nc[nH]c12 [Adenine] = 0.39
NCCc1c[nH]c2ccc(O)cc12 [Serotonin] = 0.52
O=C(O)CC(O)C(=O)O (stereo not shown) [Malic acid] = 1.38
Nc1ncnc2c1ncn2[C@@H]1O[C@H](CO)[C@@H](O)[C@H]1O [Adenosine] = 0.07
Nc1nc2c(ncn2[C@@H]2O[C@H](CO)[C@@H](O)[C@H]2O)c(=O)[nH]1 [Guanosine] = 0.57
N[C@@H](CSSC[C@H](N)C(=O)O)C(=O)O [Cystine] = 0.67

a = Nc1ncnc2c1ncn2[C@@H]1O[C@H](COP(=O)(O)O)[C@@H](O)[C@H]1O [Adenosine monophosphate]
b = Nc1ccn([C@@H]2O[C@H](CO)[C@@H](O)[C@H]2O)c(=O)n1 [Cytidine]
Prompt: Which shows the larger Rate of increase or decrease value: a or b ? Identify your selection by its label.
Completion: b
(b: 0.70, a: 0.13)

---

assay.notes: GC/MS of serum sample: time from centrifugation to isolation (Table H)
Assay type: physicochemical, human
reported.conditions: detection intensity, after 1 hour vs 30 minutes
property.label: Increase or decrease

These solved cases illustrate the format of a correct answer.
O=C(O)CCCCCCCC(=O)O = Increase
OB(O)O = Increase
OC[C@H]1O[C@@H](O[C@H]2[C@H](O)[C@@H](O)C(O)O[C@@H]2CO)[C@H](O)[C@@H](O)[C@H]1O (stereo partly shown) = Increase
Nc1ncnc2c1ncn2[C@@H]1O[C@H](CO)[C@@H](O)[C@H]1O = Increase

Prompt: Which Increase or decrease value is on record for O=c1[nH]cnc2nc[nH]c12 ?
Completion: Increase

Prompt: Which Increase or decrease value is on record for O=C(O)c1ccc(CO)o1 [5-Hydroxymethyl-2-furancarboxylic acid] ?
Completion: Increase

Prompt: Which Increase or decrease value is on record for NCCc1ccc(O)c(O)c1 ?
Completion: Decrease

Prompt: Which Increase or decrease value is on record for CCCCCCCCCCCCCCCCO ?
Completion: Increase

Prompt: Which Increase or decrease value is on record for O=C(O)C(O)Cc1ccc(O)cc1 (stereo not shown) [4-Hydroxyphenyllactic acid] ?
Completion: Decrease

Prompt: Which Increase or decrease value is on record for CCCCCCCCCCCCCCCCCCO ?
Completion: Increase

Prompt: Which Increase or decrease value is on record for CC(O)(CC(=O)O)C(=O)O (stereo not shown) ?
Completion: Decrease

---

assay.notes: GC/MS of serum sample: number of times of freezing and thawing (Table I)
Format: physicochemical, human
reported.conditions: serum sample, GC/MS; detection intensity vs 2 times of freezing and thawing
Description: After standing, the blood sample was subjected to centrifugation under a condition of room temperature, 3500 rpm, and 5 minutes. […] After centrifugation, the blood-collecting vessel was left to stand at room temperature, and the serum was isolated during this time. […]
property.label: Increase or decrease

NO [Hydroxylamine] = Increase
OC[C@@H](O)[C@@H](O)[C@H](O)[C@@H](O)CO = Decrease
OC[C@@H](O)[C@@H](O)CO = Decrease
NCCc1ccc(O)cc1 = Increase
CC(=O)N[C@@H](CCC(N)=O)C(=O)O = Increase
CCCCCCCCCCCCCCCCCC(=O)OCC(O)CO (stereo not drawn) = Decrease

Prompt: Which Increase or decrease value is on record for CNCC(=O)O ?
Completion: Increase

Prompt: Which Increase or decrease value is on record for NCCCCN ?
Completion: Increase

Prompt: Which Increase or decrease value is on record for O=C(CO)[C@H](O)[C@@H](O)[C@H](O)CO ?
Completion: Decrease

Prompt: Which Increase or decrease value is on record for O=C(O)CCCCCCCC(=O)O ?
Completion: Increase

Prompt: Which Increase or decrease value is on record for CCCCCCCCCCCCCCCCCC(=O)O ?
Completion: Increase

FYI, the data here is from patent US20220146526A1.
